Hey, just so you know, these numbers are from ChEMBL document CHEMBL5346921.

experimentNotes: Selectivity index, ratio of IC50 for cytotoxicity against human NCM460 cells to IC50 for antiproliferative activity against human HCT-116 cells
Format: toxicity, cell-based
testConditions: NCM460 cells and HCT-116 cells, read-out: Ratio IC50
Decide using selectivity ratio alone. Strictly below 4: T. Equal to or above 4: F.

itemsmiles=NC(=O)c1ccccc1OCc1cccc(NC(=O)c2ccc(Cl)cc2)c1 discretelabel=F
itemsmiles=NC(=O)c1ccccc1NCc1cccc(NC(=O)c2cccc(Cl)c2)c1 discretelabel=F
itemsmiles=NC(=O)c1ccccc1OCc1cccc(NC(=O)c2ccccc2Br)c1 discretelabel=T
itemsmiles=NC(=O)c1ccccc1NCc1cccc(NC(=O)c2ccc(Cl)cc2)c1 discretelabel=F
itemsmiles=NC(=O)c1ccccc1NCc1cccc(NC(=O)Cc2cccc(Cl)c2)c1 discretelabel=T

Inquiry: Please let me know if NC(=O)c1ccccc1NCc1cccc(NC(=O)Cc2ccc(Cl)cc2)c1 shows selectivity ratio below 4.
Reply text: T

Inquiry: Find out if reported selectivity ratio for NC(=O)c1ccccc1OCc1cccc(NC(=O)Cc2ccc(Cl)cc2)c1 is less than 4
Reply text: F

Inquiry: Lab note: confirm whether the reported selectivity ratio for this compound is below 4, equality not counting. compound: NC(=O)c1ccccc1OCc1cccc(NC(=O)c2ccccc2Cl)c1
Reply text: T
